System: OVCAR-3 ovarian
Test: NCI tumour cell line growth inhibition, 48 h; in the data active = GI50 below about 0.43 µM; inactive = the rest
Select the correct class. Options are active, inactive and nothing else.

Study these solved cases before continuing.
{"molecule": "CCOc1cccc(/C=N/NC(=O)Cc2ccc(Nc3ccnc(C(F)(F)F)c3)cc2)c1O", "group": "active"}
{"molecule": "Cc1cc([C@H](C)Nc2nccc(N3C(=O)OC[C@@H]3[C@H](C)F)n2)ncc1-c1ccnc(C(F)(F)F)c1", "group": "inactive"}
{"molecule": "COc1ccc(-c2nc(/C=N/Nc3cc(C)nc4ccc(Br)cc34)c(C)o2)cc1", "group": "inactive"}
{"molecule": "O=C1c2c(O)ccc(O)c2C(=O)c2c(NCCNCCO)ccc(NCCNCCO)c21", "group": "inactive"}

Lookup: Called result for COc1ccc2c(c1)c(-c1cc(-c3cn(C)c4ccc(OC)cc34)[nH]n1)cn2C
Found: inactive

Lookup: Called result for CC(=O)Nc1ccc2c(c1)CN1C(=O)c3ccccc3C1=N2
Found: inactive

Lookup: Called result for COc1ccccc1-c1nccc(COc2ccccc2C[C@@H](Oc2ncnc3sc(-c4ccc(F)cc4)c(-c4ccc(OCCN5CCN(C)CC5)c(Cl)c4C)c23)C(=O)O)n1
Found: inactive

Lookup: Called result for CCOC(=O)C(=Cc1c(-c2ccccc2)[nH]c2ccccc12)C(=O)OCC
Found: inactive

Lookup: Called result for N#CC1=C(N)Oc2c(sc3c(Br)cccc23)C1c1ccc(F)cc1 (configuration not stated)
Found: active

Lookup: Called result for Cc1ccc(-c2cc(C(Cl)Cl)on2)cc1
Found: inactive

Lookup: Called result for CCCCCCCCCCCCNC(=O)[C@H]1CSC(c2ccsc2)N1 (some centres not stated)
Found: inactive

Lookup: Called result for COC12C=C/C(=C(/C(=O)OCc3csc(SC)n3)C(=O)CCCCCCCCC3(OC)C=C/C(=C(/C(=O)OCc4cnc(SC)s4)C(=O)CCCCCCCC1)O3)O2 (configuration not stated)
Found: inactive

###

Test system: LOX IMVI melanoma
Assay: NCI tumour cell line growth inhibition, 48 h
Below: a set of entries, each annotated with reported TGI.

Sample records with TGI:
{"compound": "CCC(C)C(NC(=O)C(CCCC[N+](=N)N)NC(=O)C(CCCC[N+](=N)N)NC(=O)c1ccc(OC)cc1)C(=O)NC(CCCC[N+](=N)N)C(=O)N1CCCC1C(=O)NC(CCCCN)C(=O)NC(CC(C)C)C(N)=O (stereo not drawn)", "assay-endpoint": "TGI", "result": "> 100 µM"}
{"compound": "CCOc1cccc(/C=N/NC(=O)Cc2ccc(Nc3ccnc(C(F)(F)F)c3)cc2)c1O", "assay-endpoint": "TGI", "result": "> 100 µM"}
{"compound": "C[C@@H](CCO)OC1OC(COC(=O)C(C)(C)C)C(OC(=O)C(C)(C)C)C(OC(=O)C(C)(C)C)C1OC(=O)C(C)(C)C (stereo partly drawn)", "assay-endpoint": "TGI", "result": "> 100 µM"}

The compound O=C1Nc2ccc(Br)cc2C1=Nc1ccc(Cl)cc1 , when measured on LOX IMVI melanoma, yielded TGI of 31.8 µM

The compound COc1ccccc1Cn1c2c(c3cc(O)ccc31)C(=O)c1ccccc1C2=O , when measured on LOX IMVI melanoma, yielded TGI of > 100 µM

The compound COc1cc2c3cc1Oc1cc(ccc1O)C[C@@H]1c4c(cc(OC)c(O)c4Oc4ccc(cc4)C[C@@H]3[N+](C)(C)CC2)CC[N+]1(C)C , when measured on LOX IMVI melanoma, yielded TGI of 42.5 µM

The compound COc1ccc(C(=C2C(=O)OC(=O)C2=C(C)C)c2ccc(OC)cc2)cc1 , when measured on LOX IMVI melanoma, yielded TGI of > 100 µM

The compound O=C(Nc1nc2ccc(F)cc2s1)c1cccnc1Nc1ccc(Cl)cc1Cl , when measured on LOX IMVI melanoma, yielded TGI of 14.6 µM

###

Below: a set of entries, each annotated with reported log10(TGI).
Test system: COLO 205 colon
Test: NCI tumour cell line growth inhibition, 48 h
Response schema: value (number) is log10 of TGI in units of µM.

Sample records with log10(TGI):
{"compound": "COc1ccc2c(c1)-c1nc(=S)n(CCN(C)C)c3ccc([N+](=O)[O-])c(c13)N2", "numeric-value": 0.78}
{"compound": "Cc1ccc(NCCNCC(O)CO)c2c(=O)c3ccccc3sc12 (stereo unspecified)", "numeric-value": 0.48}
{"compound": "CCCC/C=C1\\CCC(CN2CCCC2)C1=O (stereo unspecified)", "numeric-value": 1.42}
{"compound": "O=C1c2cc3c(cc2-c2c1c1cc(F)c(F)cc1c(=O)n2C[C@H](O)CO)OCO3", "numeric-value": 0.08}

The compound C(/C=C/N1CCCC1)=C\c1nc(N2CCCC2)c2ccccc2n1 showed log10(TGI) equal to 1.45

###

Below: a set of entries, each annotated with reported TGI.
Test system: NCI-H522 lung
Assay: NCI tumour cell line growth inhibition, 48 h
Hi! Could you send only the number? It should be in µM, unit omitted.

Sample records with TGI:
{"compound": "CC1=CC(O)CC(C)(C)C1/C=C/C(C)=C/C=C/C(C)=C/C=C/C=C(C)/C=C/C=C(C)/C=C/C1=C(C)CC(O)CC1(C)C (centres undefined)", "assay-endpoint": "TGI", "numeric-value": 30}
{"compound": "C/C(N=NC(=S)N1CCCCCC1)=C1\\C=CC=CN1O", "assay-endpoint": "TGI", "numeric-value": 7.1}

Now consider the entry below.
The compound CC1CCc2sc3[nH]c(=S)n(C)c(=O)c3c2C1 (centres undefined) showed TGI equal to 84.5

###

Test system: UACC-62 melanoma
Experiment: NCI tumour cell line growth inhibition, 48 h
Below: a set of entries, each annotated with reported TGI.

{"compound": "N#Cc1ccnc(C(=O)N2CCCC2C(=O)O)c1 (stereo not drawn)", "result": "> 100 µM"}
{"compound": "O=C(O)C12C3C4(C(=O)O)C1C1(C(=O)O)C2C3(C(=O)O)C41 (stereo not drawn)", "result": "> 100 µM"}

Now consider the entry below.
The compound COC(=O)C1=C(C(=O)OC)N(C(C)C)[C@H]2C(C(=O)OC)=C(C(=O)OC)N(C(C)C)[C@@H]12 showed TGI equal to > 100 µM

###

Below: a set of entries, each annotated with reported TGI.
Tested on: ACHN renal
Experiment: NCI tumour cell line growth inhibition, 48 h

Sample records with TGI:
{"molecule": "CC1=[N+]([O-])C2(CCCC2)N(O)C1(C)C", "tested-target": "ACHN renal", "assay-endpoint": "TGI", "result": "> 100 µM"}
{"molecule": "COc1ccc(-c2nn3ncccc3c2-c2ccnc(Nc3cccc(C(F)(F)F)c3)n2)cc1", "tested-target": "ACHN renal", "assay-endpoint": "TGI", "result": "> 25 µM"}
{"molecule": "O=C(/C=C/CC(O)(c1ccccc1)c1ccccc1)Nc1ccccc1Cl", "tested-target": "ACHN renal", "assay-endpoint": "TGI", "result": "> 100 µM"}
{"molecule": "COc1cc(/C=C2\\C(=O)Nc3ccc(Br)cc32)cc(OC)c1OC", "tested-target": "ACHN renal", "assay-endpoint": "TGI", "result": "> 100 µM"}

The molecule Nn1nnc2ccccc21 showed TGI equal to > 100 µM

The molecule CC1CCc2sc3[nH]c(=S)n(C)c(=O)c3c2C1 (stereo unspecified) showed TGI equal to > 100 µM

###

System: HL-60(TB) leukemia
Test: NCI tumour cell line growth inhibition, 48 h
Below: a set of entries, each annotated with reported TGI.
Hi! Could you send only the number? It should be in µM, unit omitted.

{"compound": "N#CC1=C(N)Oc2c(sc3c(Br)cccc23)C1c1ccc(F)cc1 (stereo unspecified)", "numeric-value": 1.02}
{"compound": "C/C(=C\\CO)CC[C@@H]1[C@@]2(C)CCCC(C)(C)[C@@H]2CC[C@@]1(C)O", "numeric-value": 45.7}

Now consider the entry below.
The compound CC1OC2OC3C(OCC(O)C3O)OC(=O)[C@]34CCC(C)(C)CC3C3=CCC5[C@@]6(C)C[C@H](O)[C@H](OC7OC(CO)C(O)C(O)C7OC7OC(COC(=O)CC(C)(O)CC(=O)OC1C(OC1OC(CO)C(O)C(O)C1O)C2O)C(O)C(O)C7O)[C@@](C)(CO)C6CC[C@@]5(C)[C@]3(C)CC4 (stereo partly specified) , when measured on HL-60(TB) leukemia, yielded TGI of 3.13

###

Below: a set of entries, each annotated with reported GI50.
System: SK-MEL-28 melanoma
Assay: NCI tumour cell line growth inhibition, 48 h

Sample records with GI50:
{"molecule": "Cc1nc2cc(Nc3nc(Nc4ccc(F)cc4)nc(-c4ccc(Cl)cc4)n3)ccc2n1Cc1ccccc1", "result": "8.63 µM"}
{"molecule": "C=C1C(=O)C23CC1CCC2C12CO[C@@]3(O)[C@@H](O)C1C(C)(C)C=CC2=O (stereo not given in full)", "result": "1.58 µM"}
{"molecule": "Cc1ccc(-c2cc(C(Cl)Cl)on2)cc1", "result": "> 100 µM"}

The molecule Cc1ccc2c(C(C[N+](=O)[O-])c3ccco3)c(-c3ccccc3)[nH]c2c1 (stereo not given) showed GI50 equal to 98.9 µM

The molecule CCCCCCCCCCCCNC(=O)[C@H]1CSC(c2ccsc2)N1 (stereo not given in full) showed GI50 equal to 0.814 µM
